Values compiled from patent US20250263490A1.

target: T1, recombinant human domain 1-3His6 of the cation-independent mannose-6-phosphate receptor (human, UniProt P11717 41-467); assay: ELISA on coated antigen, 2nd of 2 repeats
T1 construct: Biotinylated (NHS-PEG4-biotin) for BLI; Glycosylated; also called hDom1-3His6; hCI-M6PRD1-D3
pEC50: −log10 of the molar value.
TEST_READOUT: pEC50

# BINDER, pEC50
measured = [
    ("anti-CI-M6PR VHH8 (VHH, His6-tagged (Pichia pastoris)) VHH: QVQLQESGGGLVQAGGSLRLSCEASGRTFNTYNWGWFRQAPGKEREFVAAIRWSSSKTSYADSVKGRFTISRDNAKNTIYLQMNSLKPEDTAVYYCAASIVDFTTNPSHFGSWGQGTQVTVSS", 9.78),
    ("anti-CI-M6PR VHH10 (VHH, His6-tagged; made in Pichia pastoris) VHH: QVQLQESGGGSVQAGGSLRLSCAPAGRTFSRIRMGWFRQAPGKEREFVAAISSGGLSYYADSMKGRFTISRDNAKNTVLLQMNSLEPDDTAVYYCAAVLNDYIDDYVARNPTLYDYWGQGTQVTVSS", 9.65),
    ("anti-CI-M6PR VHH7 (VHH, His6-tagged (Pichia pastoris)) VHH: QVQLQESGGGLVQPGGSLRLSCAASGIIFSDNRMDWYRQAPGKQREWVATLASYGWKTYADSVKGRFTISRDNTKNTVYLRMNSLKPEDTAVYYCKASSPVLNDIWGQGTQVTVSS", 8.92),
    ("anti-CI-M6PR VHH2 (VHH, His6-tagged; made in Pichia pastoris) VHH: QVQLQESGGGLVQPGGSLRLSCVFSGRTFMSYDVGWFRQAPGKERELLSSITSSSSSPYYAESVKGRFAVSRDGAKKTVYLRMNSLEPEDTAVYYCAARENWRNDWQYWGQTQVTVSS", 9.75),
    ("anti-CI-M6PR VHH1 (VHH, His6-tagged; made in Pichia pastoris, later also in E. coli WK6) VHH: QVQLQESGGGLVQPGGSLRLSCVASGFTFDRYWMNWLRQIPGKEIEWVSTINTGGTGTYYDDSVKGRFSISRDDAKNTLYLTMNSLKTEDTAVYYCARGATYYRGNSAIRGQGTQVTVSS", 7.71),
]

I. anti-CI-M6PR VHH11 (VHH, His6-tagged; made in Pichia pastoris) VHH: QVQLQESGGGLVQAGDSLKLSCTASGPTFSEITGGWFRQVPGKEREFVASISSTGITTYYTDSVKGRFTVSRDNAKNTMYLQMNSLKPEDTGVYYCAARSTSRSIAITVGYDYWGQGTQVTVSS
II. anti-CI-M6PR VHH9 (VHH, His6-tagged; made in Pichia pastoris) VHH: QVQLQESGGGLVQAGGSLRLSCAASGTILSIKTMGWYRQAPGKEREWVATITSSSIPMYADSVKGRFTISRDDAKNTVYLQMNSLKPEDTGVYYCNAPWTDYWGQGTQVTVSS
III. anti-CI-M6PR VHH4 (VHH, His6-tagged; made in Pichia pastoris) VHH: QVQLQESGGGLVQAGGSLRLSCAASGRTFSNYVMGWFRQAPGKEREFVGSISQGGKMTYYPDSVKGRFTISRDNAKNTMYLQMDGLKPEDTAVYYCAVSRGYPMVRVSEVDYWGQGTQVTVSS
IV. anti-CI-M6PR VHH3 (VHH, His6-tagged; made in Pichia pastoris) VHH: QVQLQESGGGLVQPGGSLRLSCAAFGLNFKNFDMIWFRQAPGEERDIVAAISSSSSTIWYEDSVKGRFTISRDNAKNTVYLQMNSLKPEDTAVYYCAAALTSWRRPDYWGQGTQVTVSS
Lookup: Sort the 4 binders by pEC50; largest first, smallest last. Present the labels in the sequence the task asks for.
Found: IV, II, I, III
(IV: 9.98, II: 9.60, I: 7.52, III: 7.15)
